protocolDetails: clinical
settings: human, in vivo, 225 mg, Cmax, geometric mean
recordedEndpoint: Cmax (nM)
A number alone suffices; assume nM.

Which Cmax is listed for C=CCn1c(=O)c2cnc(Nc3ccc(N4CCN(C)CC4)cc3)nc2n1-c1cccc(C(C)(C)O)n1 ?
1440
